# TARGET OR SYSTEM: cGMP-dependent protein kinase 2 (Homo sapiens)
# MEASUREMENT PARAMETERS: at 1 µM
Property: inhibition; scope: individual compounds
The answer is to be given in %; state only the numeric part.

COMPOUND | NUMERIC VALUE
CC(=O)NCc1cccc(C#Cc2cncnc2Nc2ccc(OCc3cccc(F)c3)c(Cl)c2)c1 | 2.28
COc1ccc(-c2nn3ncccc3c2-c2ccnc(Nc3ccc4c(c3)OCCO4)n2)cc1 | -1.06
Fc1ccc(-c2nn3ncccc3c2-c2ccnc(Nc3ccc4c(c3)OCCO4)n2)cc1 | 3.43
CC(C)COC(=O)c1ccc2c(c1)/C(=C/Nc1ccc(S(N)(=O)=O)cc1)C(=O)N2 | 54.4
c1ccc(-c2nc3n(c2-c2ccc4c(c2)OCO4)CCC3)nc1 | 2.85

Exercise: Please tell me: inhibition of `CCn1c(-c2nonc2N)nc2cnc(Oc3cccc(NC(=O)c4ccc(N(C)C)cc4)c3)cc21` , system cGMP-dependent protein kinase 2 (Homo sapiens)?;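 also: mean inhibition of PRKG2 from the GSK PKIS screen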
Solution: 60.8

Exercise: Follow-up entry: CC1=C(C(=O)Nc2cc(Cl)c3[nH]ncc3c2)C(c2ccc(C(F)(F)F)cc2)CC(=O)N1 (stereo not given)
Solution: 59.7

Exercise: Follow-up entry: `CCN(CC)S(=O)(=O)c1ccc(OC)c(Nc2ncc(-c3ccccc3)o2)c1`
Solution: 0.95

Exercise: Follow-up entry: `Cc1cccc(Nc2ncc(-c3ccccc3)o2)c1`
Solution: 10.7

Exercise: Follow-up entry: `Nc1ncc(-c2cccc(S(N)(=O)=O)c2)c2scc(-c3ccc(F)c(Cl)c3)c12`
Solution: 1.46

Exercise: Follow-up entry: `Cc1ccc2c(-c3ccnc(Nc4ccccc4)n3)c(-c3ccc(F)cc3)nn2n1`
Solution: 2.49

Exercise: Follow-up entry: `COc1ccc(CNC(=O)c2ccc(-c3cc(-c4nnc(C)o4)ccc3C)cc2)cc1`
Solution: 4.96

Exercise: Follow-up entry: `O=C(Nc1n[nH]c2cc(-c3ccc(F)cc3)ccc12)C1CC1`
Solution: 5.58

Exercise: Follow-up entry: `CS(=O)(=O)CCNCc1ccc(-c2ccc3ncnc(Nc4ccc(OCc5ccccc5)c(C(F)(F)F)c4)c3c2)o1`
Solution: 0.3

---

Property: inhibition; scope: individual compounds
# TARGET OR SYSTEM: SRSF protein kinase 1 (Homo sapiens);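 also: values are mean percent inhibition of SRPK1 kinase, measured in the GSK PKIS screening panel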
# MEASUREMENT PARAMETERS: at 0.1 µM
The answer is to be given in %; state only the numeric part.

Some solved entries appear below for comparison.
MOLECULAR STRING | UNIT INFO | inhibition
NC(=O)c1sc(-n2cnc3ccc(C(F)(F)F)cc32)cc1OCc1ccccc1Br | % | -1.69
CCc1nn2ncccc2c1-c1ccnc(NC2CC2)n1 | % | -1.37
CCCN(CCS(C)(=O)=O)Cc1ccc(-c2ccc3ncnc(Nc4ccc(OCc5cccc(F)c5)c(Cl)c4)c3c2)o1 | % | -1.14

Exercise: Query: inhibition; subject: `COC(=O)Nc1nc2ccc(S(=O)(=O)c3ccc(NC(=O)Nc4cc(C(F)(F)F)ccc4F)cc3)cc2[nH]1`
Solution: -1.52

Exercise: Follow-up entry: `FC(F)(F)c1cccc(-c2nn3ncccc3c2-c2ccnc(Nc3ccc4c(c3)OCCO4)n2)c1`
Solution: -2.68

Exercise: Follow-up entry: `Cc1cccc2c1NC(=O)/C2=N\Nc1ccc(S(N)(=O)=O)cc1`
Solution: -0.92

Exercise: Follow-up entry: `Nc1ncc(-c2cccc(S(N)(=O)=O)c2)c2scc(-c3ccc(F)c(Cl)c3)c12`
Solution: -2.06

Exercise: Follow-up entry: `N#Cc1c(NC(=O)CN2CCOCC2)sc2c1CCCC2`
Solution: -1.48

Exercise: Follow-up entry: `[O-][S+]1CCN(Cc2ccc(-c3ccc4ncnc(Nc5ccc(OCc6cccc(F)c6)c(Cl)c5)c4c3)o2)CC1`
Solution: -1.9

Exercise: Follow-up entry: `COc1ccc2c(-c3ccnc(Nc4cccc(OC(F)(F)F)c4)n3)cnn2n1`
Solution: -0.39

Exercise: Follow-up entry: `Fc1ccc(-c2nn3ncccc3c2-c2ccnc(Nc3ccc4c(c3)OCCO4)n2)cc1`
Solution: -3.43

Exercise: Follow-up entry: `CCNC(=O)O[C@H]1CN[C@H](C#Cc2cc3ncnc(Nc4ccc(OCc5cccc(F)c5)c(Cl)c4)c3s2)C1`
Solution: -1.03

---

# TARGET OR SYSTEM: Macrophage colony-stimulating factor 1 receptor (Homo sapiens) (UniProt P07333)
# Sequence (P07333 whole entry): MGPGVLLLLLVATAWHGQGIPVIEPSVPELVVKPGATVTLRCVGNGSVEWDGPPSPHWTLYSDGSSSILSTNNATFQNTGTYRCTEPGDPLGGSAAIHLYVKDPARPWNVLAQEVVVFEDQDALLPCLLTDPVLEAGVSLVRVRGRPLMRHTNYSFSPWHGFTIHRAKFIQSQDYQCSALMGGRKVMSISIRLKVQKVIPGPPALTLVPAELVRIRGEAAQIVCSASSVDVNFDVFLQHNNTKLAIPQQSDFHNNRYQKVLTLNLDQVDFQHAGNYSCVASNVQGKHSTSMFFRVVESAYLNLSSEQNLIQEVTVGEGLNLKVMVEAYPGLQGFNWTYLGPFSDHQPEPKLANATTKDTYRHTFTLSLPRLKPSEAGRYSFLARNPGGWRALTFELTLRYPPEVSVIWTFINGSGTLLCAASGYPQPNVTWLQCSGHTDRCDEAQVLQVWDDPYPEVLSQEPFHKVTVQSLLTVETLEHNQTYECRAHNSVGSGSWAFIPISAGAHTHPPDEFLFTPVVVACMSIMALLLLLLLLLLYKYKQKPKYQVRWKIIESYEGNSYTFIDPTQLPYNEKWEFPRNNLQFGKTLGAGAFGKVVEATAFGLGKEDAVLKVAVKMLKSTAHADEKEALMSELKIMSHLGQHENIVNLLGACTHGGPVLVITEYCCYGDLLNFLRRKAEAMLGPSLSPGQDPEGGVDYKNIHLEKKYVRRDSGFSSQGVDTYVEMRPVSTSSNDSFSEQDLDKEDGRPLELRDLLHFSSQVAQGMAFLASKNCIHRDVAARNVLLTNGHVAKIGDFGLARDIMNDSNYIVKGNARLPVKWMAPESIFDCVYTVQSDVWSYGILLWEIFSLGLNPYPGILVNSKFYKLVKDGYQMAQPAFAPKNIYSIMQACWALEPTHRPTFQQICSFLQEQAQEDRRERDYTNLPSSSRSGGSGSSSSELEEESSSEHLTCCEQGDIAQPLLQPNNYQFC
# MEASUREMENT PARAMETERS: at 0.1 µM
READOUT KIND: inhibition (%)
The answer is to be given in %; state only the numeric part.

Some solved entries appear below for comparison.
MOLECULAR STRING | inhibition / %
COc1ccc2[nH]c3c4[nH]c5ccc(OC)cc5c4c4c(c3c2c1)C(=O)NC4=O | 12.9
COC(=O)Nc1nc2ccc(S(=O)(=O)c3ccc(NC(=O)Nc4cc(C(F)(F)F)ccc4F)cc3)cc2[nH]1 | -1.07
[O-][S+]1CCN(Cc2ccc(-c3ccc4ncnc(Nc5ccc(OCc6cccc(F)c6)c(Cl)c5)c4c3)o2)CC1 | 1.84
FC(F)(F)c1cccc(-c2nn3ncccc3c2-c2ccnc(Nc3ccc4c(c3)OCCO4)n2)c1 | 1.23
NC(=O)c1sc(-n2cnc3ccc(C(F)(F)F)cc32)cc1OCc1ccccc1Br | 0.91
COc1ccc2c(-c3ccnc(Nc4cccc(OC(F)(F)F)c4)n3)cnn2n1 | 7.22
COc1cc2ncn(-c3cc(OCc4ccccc4C(F)(F)F)c(C(=O)N(C)C)s3)c2cc1OC | 4.5
COc1ccc(-c2nn3ncccc3c2-c2ccnc(Nc3ccc4c(c3)OCCO4)n2)cc1 | 19.6
COc1cc(N2CCN(C(C)C)CC2)ccc1Nc1nc(Nc2ccc(F)cc2C(N)=O)c2cc[nH]c2n1 | 11.7
CCc1nn2ncccc2c1-c1ccnc(NC2CC2)n1 | 2.72

From here, focus on the item given below.
Exercise: Please tell me: inhibition of `CNC(=O)c1cc(-c2ccc(F)cc2)cc(-c2ccc(S(=O)(=O)N3CCCC3)cc2)c1N` , system Macrophage colony-stimulating factor 1 receptor (Homo sapiens) (UniProt P07333)?;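 also: value reported is the mean inhibition of FMS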
Solution: 0.47

---

Property: inhibition; scope: individual compounds
# TARGET OR SYSTEM: Tyrosine-protein kinase Srms (Homo sapiens) (UniProt Q9H3Y6)
# Sequence (Q9H3Y6 whole entry): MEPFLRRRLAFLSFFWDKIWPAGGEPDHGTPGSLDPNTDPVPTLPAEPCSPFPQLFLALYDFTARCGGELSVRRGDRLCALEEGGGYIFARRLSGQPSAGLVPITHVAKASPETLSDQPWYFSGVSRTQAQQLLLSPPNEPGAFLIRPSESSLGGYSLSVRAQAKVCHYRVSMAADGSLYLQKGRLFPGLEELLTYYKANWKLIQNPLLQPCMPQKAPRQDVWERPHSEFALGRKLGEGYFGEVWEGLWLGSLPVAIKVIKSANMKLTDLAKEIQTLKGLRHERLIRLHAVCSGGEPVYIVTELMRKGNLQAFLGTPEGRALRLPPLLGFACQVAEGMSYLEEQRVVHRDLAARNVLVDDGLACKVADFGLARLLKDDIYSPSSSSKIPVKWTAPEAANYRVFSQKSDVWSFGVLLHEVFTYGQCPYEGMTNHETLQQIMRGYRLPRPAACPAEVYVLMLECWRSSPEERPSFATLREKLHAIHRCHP
# MEASUREMENT PARAMETERS: at 1 µM
# Description: GSK_PKIS: SRMS mean inhibition at 1 uM [Nanosyn]
# do not omit the unit; it follows the number

Some solved entries appear below for comparison.
MOLECULAR STRING | inhibition
COc1cccc(-n2ncc3c(N/N=C/c4ccc(F)cc4)ncnc32)c1 | 3.9%
CS(=O)(=O)CCNCc1ccc(-c2ccc3ncnc(Nc4ccc(OCc5ccccc5)c(C(F)(F)F)c4)c3c2)o1 | -1.62%
N#Cc1c(NC(=O)c2ccc(F)cc2)sc2c1CCCC2 | -0.62%

Exercise: Query: inhibition; subject: `N#Cc1c(NC(=O)CN2CCOCC2)sc2c1CCCC2`
Solution: 0.73%

Exercise: Follow-up entry: `Cc1ccc(O)cc1Nc1ccnc2cc(-c3ccccn3)ccc12`
Solution: 39.8%

---

Property: inhibition; scope: individual compounds
# Test system: Tyrosine-protein kinase ABL1 (Homo sapiens), P00519 [T315I]
# MEASUREMENT PARAMETERS: at 0.1 µM
# do not omit the unit; it follows the number

Some solved entries appear below for comparison.
MOLECULAR STRING | TARGET OR SYSTEM | inhibition
N#Cc1c(NC(=O)CN2CCOCC2)sc2c1CCCC2 | Tyrosine-protein kinase ABL1 (Homo sapiens), P00519 [T315I] | 2.58%
NS(=O)(=O)c1ccc(Nc2ncc(-c3ccccc3)o2)cc1 | Tyrosine-protein kinase ABL1 (Homo sapiens), P00519 [T315I] | 3.72%
Clc1ccc(-c2nn3ncccc3c2-c2ccnc(Nc3ccccc3)n2)cc1 | Tyrosine-protein kinase ABL1 (Homo sapiens), P00519 [T315I] | 6.6%
COc1cc(Nc2nccc(Nc3ccc4c(C)n[nH]c4c3)n2)cc(OC)c1OC | Tyrosine-protein kinase ABL1 (Homo sapiens), P00519 [T315I] | 1.65%

Exercise: Query: inhibition; subject: `COc1cc(N2CCN(C(C)C)CC2)ccc1Nc1nc(Nc2ccc(F)cc2C(N)=O)c2cc[nH]c2n1`
Solution: -0.7%

---

# TARGET OR SYSTEM: Calcium/calmodulin-dependent protein kinase type II subunit delta (Homo sapiens);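 also: percent inhibition values are means, taken from the GSK PKIS kinase profiling set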
# MEASUREMENT PARAMETERS: at 0.1 µM
Property: inhibition; scope: individual molecules
The answer is to be given in %; state only the numeric part.

Exercise: Query: inhibition; subject: `CC(=O)Nc1cccc(C#Cc2cncnc2Nc2ccc(OCc3cccc(F)c3)c(Cl)c2)c1`
Solution: 4.28

Exercise: Follow-up entry: `CNC(=O)c1cncc(/C=C/c2ccccc2Cl)c1`
Solution: -0.13

Exercise: Follow-up entry: `O=S(=O)(CCNCc1ccc(-c2ccc3ncnc(Nc4ccc(OCc5cccc(F)c5)c(Cl)c4)c3c2)o1)c1ccccc1`
Solution: 3.72

Exercise: Follow-up entry: `FC(F)(F)c1cccc(-c2nn3ncccc3c2-c2ccnc(Nc3ccc4c(c3)OCCO4)n2)c1`
Solution: 1.59
